TEST_TARGET: hA2b/CHO (Homo sapiens (Human))
ASSAY_OVERVIEW: cAMP inhibition assay in hA2b/CHO cells, 10 μM adenosine
Assay type: cell-based
TEST_CONDITIONS: read-out: cAMP & FLIPR IC50 (nM) hA2b
PROPERTY_LABEL: IC50 (nM)
Give the value in nM but do not write nM after it.

Task: Report IC50 for Nc1nc(-c2ncco2)c(-c2ccc(=O)n(CCCO)c2)nc1C(=O)NCc1c(F)cccc1F [Example 102] please.
Output: 120

Task: Report IC50 for Cc1cnc2ccc(-c3nc(C(=O)NCCn4cccn4)c(N)nc3-c3ncco3)cn12 [Example 158] please.
Output: 167

Task: Report IC50 for Cn1cnc2ccc(-c3nc(C(=O)NCc4ncccc4NCCO)c(N)nc3-c3ccc(F)cc3)cc21 [Example 117] please.
Output: 146

Task: Report IC50 for Cc1ccc(-c2nc(N)c(CNC(=O)c3c(F)cccc3F)nc2-c2ccc(=O)n(C)c2)o1 [Example 4] please.
Output: 1220

###

TEST_TARGET: hA2b/CHO (Homo sapiens (Human), UniProt P29275)
Sequence (P29275 whole entry): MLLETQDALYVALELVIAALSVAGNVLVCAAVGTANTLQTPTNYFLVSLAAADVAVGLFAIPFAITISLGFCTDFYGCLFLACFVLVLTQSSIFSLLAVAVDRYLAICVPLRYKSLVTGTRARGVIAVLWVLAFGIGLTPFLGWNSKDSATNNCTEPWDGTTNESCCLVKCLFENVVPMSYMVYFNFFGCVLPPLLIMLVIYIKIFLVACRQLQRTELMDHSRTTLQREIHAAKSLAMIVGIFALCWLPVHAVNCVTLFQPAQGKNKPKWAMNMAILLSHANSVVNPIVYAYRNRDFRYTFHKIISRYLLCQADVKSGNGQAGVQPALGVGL
ASSAY_OVERVIEW: cAMP inhibition assay in hA2b/CHO cells, 10 μM adenosine;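 further: cells exposed to compound 30 min at 37 °C, then stimulated with adenosine a further 30 min, cAMP read after 60 min at room temperature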
Format: cell-based
TEST_CONDITIONS: read-out: cAMP & FLIPR IC50 (nM) hA2b
Consider the following compounds; for each one, report its IC50.
Give the value in nM but do not write nM after it.

Task: Report IC50 for COc1cccc(F)c1CNC(=O)c1nc(-c2cc(C)nc(C)c2)c(-c2ccc(F)cc2)nc1N please.
Output: 781

Task: Report IC50 for Cc1cnc2ccc(-c3nc(CNC(=O)[C@H]4CCCN4C)c(N)nc3-c3ccc(F)cc3)cn12 please.
Output: 59

Task: Report IC50 for Nc1nc(-c2ncco2)c(-c2ccc(=O)[nH]c2)nc1C(=O)NCc1c(F)cccc1F please.
Output: 1.8

Task: Report IC50 for Cc1cnc2ccc(-c3nc(C(=O)NC[C@H]4CCCO4)c(N)nc3-c3ncco3)cn12 please.
Output: 77

Task: Report IC50 for COc1ccccc1C(=O)NCc1nc(-c2cc(C)nc(C)c2)c(-c2ccc(F)cc2)nc1N please.
Output: 7830

Task: Report IC50 for Cn1cc(-c2nc(C(=O)NCc3c(F)cccc3F)c(N)nc2-c2ccc(F)cc2)ccc1=O please.
Output: 103

###

TEST_TARGET: hADORA1/CHO (hA1 expressing) cells (Homo sapiens (Human), UniProt P30542)
Sequence (P30542 whole entry): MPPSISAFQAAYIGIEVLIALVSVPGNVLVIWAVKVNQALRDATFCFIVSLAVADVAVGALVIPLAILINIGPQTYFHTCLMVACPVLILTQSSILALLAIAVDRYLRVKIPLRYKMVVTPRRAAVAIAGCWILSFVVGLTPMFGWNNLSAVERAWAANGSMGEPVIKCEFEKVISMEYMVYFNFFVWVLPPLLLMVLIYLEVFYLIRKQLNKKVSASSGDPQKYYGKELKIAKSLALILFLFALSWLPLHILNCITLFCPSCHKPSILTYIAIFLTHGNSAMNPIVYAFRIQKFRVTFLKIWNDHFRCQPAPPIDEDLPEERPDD
ASSAY_OVERVIEW: cell-based
TEST_CONDITIONS: FLIPR inhibition, 10 μM adenosine, read-out: cAMP & FLIPR IC50 (nM) hA1
PROPERTY_LABEL: IC50 (nM)
Give the value in nM but do not write nM after it.

Task: Any idea what IC50 came out for Cc1cnc2ccc(-c3nc(C(=O)NCC4CC(=O)N(C)C4)c(N)nc3-c3ncco3)cn12 (single isomer, unassigned; isomer 2) [Example 210] on hADORA1/CHO (hA1 expressing) cells (Homo sapiens (Human), UniProt P30542)?
Output: 14700

Task: Any idea what IC50 came out for COC(C)CNC(=O)c1nc(-c2ccc3ncc(C)n3c2)c(-c2ncco2)nc1N (single isomer, unassigned; isomer 1) [Example 248] on hADORA1/CHO (hA1 expressing) cells (Homo sapiens (Human), UniProt P30542)?
Output: 121

Task: Any idea what IC50 came out for CCc1cnn2ccc(-c3nc(C(=O)NC[C@@H]4CCCN4C)c(N)nc3-c3ncco3)cc12 [Example 129] on hADORA1/CHO (hA1 expressing) cells (Homo sapiens (Human), UniProt P30542)?
Output: 10000

Task: Any idea what IC50 came out for Cc1cnc2ccc(-c3nc(C(=O)NCC4(C)CCOC4)c(N)nc3-c3ncco3)cn12 (single isomer, unassigned; isomer 2) [Example 252] on hADORA1/CHO (hA1 expressing) cells (Homo sapiens (Human), UniProt P30542)?
Output: 260

Task: Any idea what IC50 came out for CN1CCC[C@H]1CNC(=O)c1nc(-c2ccc3ncn(C)c3c2)c(-n2nccn2)nc1N [Example 130] on hADORA1/CHO (hA1 expressing) cells (Homo sapiens (Human), UniProt P30542)?
Output: 10000

Task: Any idea what IC50 came out for Cc1cnc2ccc(-c3nc(C(=O)NCC4CC(C)(C)O4)c(N)nc3-c3ncco3)cn12 (single isomer, unassigned; isomer 1) [Example 260] on hADORA1/CHO (hA1 expressing) cells (Homo sapiens (Human), UniProt P30542)?
Output: 30

Task: Any idea what IC50 came out for Cc1cnc2ccc(-c3nc(C(=O)NCc4cccc(N5CC(CN(C)C)C5)n4)c(N)nc3-c3ncco3)cn12 [Cmpd. 261] on hADORA1/CHO (hA1 expressing) cells (Homo sapiens (Human), UniProt P30542)?
Output: 158

Task: Any idea what IC50 came out for Cn1cc(-c2nc(C(=O)NCc3ccccc3OC(F)F)c(N)nc2-c2ccc(F)cc2)ccc1=O [Example 72] on hADORA1/CHO (hA1 expressing) cells (Homo sapiens (Human), UniProt P30542)?
Output: 14

Task: Any idea what IC50 came out for COc1c(F)cccc1CNC(=O)c1nc(-c2cc(C)nc(C)c2)c(-c2ccc(F)cc2)nc1N [Example 54] on hADORA1/CHO (hA1 expressing) cells (Homo sapiens (Human), UniProt P30542)?
Output: 1590

Task: Any idea what IC50 came out for Cc1cnc2ccc(-c3nc(CNC(=O)[C@@H]4CCCN4C)c(N)nc3-c3ccc(F)cc3)cn12 [Example 156] on hADORA1/CHO (hA1 expressing) cells (Homo sapiens (Human), UniProt P30542)?
Output: 83

Task: Any idea what IC50 came out for Cc1cnc2ccc(-c3nc(C(=O)NCCC(=O)N4CCCCC4)c(N)nc3-c3ncco3)cn12 [Example 215] on hADORA1/CHO (hA1 expressing) cells (Homo sapiens (Human), UniProt P30542)?
Output: 891

Task: Any idea what IC50 came out for COC(C)CNC(=O)c1nc(-c2ccc3ncc(C)n3c2)c(-c2ncco2)nc1N (racemic) [Example 228] on hADORA1/CHO (hA1 expressing) cells (Homo sapiens (Human), UniProt P30542)?
Output: 2020

Task: Any idea what IC50 came out for Cn1cc(-c2nc(C(=O)NCc3cccc(N4CCCC4)n3)c(N)nc2-c2ncco2)ccc1=O [Example 28] on hADORA1/CHO (hA1 expressing) cells (Homo sapiens (Human), UniProt P30542)?
Output: 4900

Task: Any idea what IC50 came out for Cc1cnc2ccc(-c3nc(C(=O)NCC4COCCO4)c(N)nc3-c3ncco3)cn12 (racemic) [Example 211] on hADORA1/CHO (hA1 expressing) cells (Homo sapiens (Human), UniProt P30542)?
Output: 319

Task: Any idea what IC50 came out for Cc1ccc(-c2nc(N)c(CNC(=O)c3c(F)cccc3F)nc2-c2ccc(=O)n(C)c2)o1 [Example 4] on hADORA1/CHO (hA1 expressing) cells (Homo sapiens (Human), UniProt P30542)?
Output: 18

Task: Any idea what IC50 came out for Cc1cnc2ccc(-c3nc(C(=O)NCC4CN(C)CCO4)c(N)nc3-c3ncco3)cn12 (racemic) [Example 207] on hADORA1/CHO (hA1 expressing) cells (Homo sapiens (Human), UniProt P30542)?
Output: 5950

Task: Any idea what IC50 came out for Cc1cnc2ccc(-c3nc(C(=O)NC[C@H]4CCOC4)c(N)nc3-n3nccn3)cn12 [Example 242] on hADORA1/CHO (hA1 expressing) cells (Homo sapiens (Human), UniProt P30542)?
Output: 294

Task: Any idea what IC50 came out for CC(NC(=O)c1nc(-c2ccc(=O)n(C)c2)c(-c2ncco2)nc1N)c1c(F)cccc1F (single isomer, unassigned) [Example 40] on hADORA1/CHO (hA1 expressing) cells (Homo sapiens (Human), UniProt P30542)?
Output: 10000

Task: Any idea what IC50 came out for Cn1cc(-c2nc(C(=O)NCc3ncccc3F)c(N)nc2-c2ncco2)ccc1=O [Example 14] on hADORA1/CHO (hA1 expressing) cells (Homo sapiens (Human), UniProt P30542)?
Output: 10000

Task: Any idea what IC50 came out for Nc1nc(-c2ncco2)c(-c2ccc(=O)n(CCCO)c2)nc1C(=O)NCc1c(F)cccc1F [Example 102] on hADORA1/CHO (hA1 expressing) cells (Homo sapiens (Human), UniProt P30542)?
Output: 78

Task: Any idea what IC50 came out for Cc1cnc2ccc(-c3nc(C(=O)NC4CC4)c(N)nc3-c3ncco3)cn12 [Example 245] on hADORA1/CHO (hA1 expressing) cells (Homo sapiens (Human), UniProt P30542)?
Output: 87

Task: Any idea what IC50 came out for Cc1cnc2ccc(-c3nc(C(=O)NCC4CCCCO4)c(N)nc3-c3ncco3)cn12 (single isomer, unassigned; isomer 1) [Example 165] on hADORA1/CHO (hA1 expressing) cells (Homo sapiens (Human), UniProt P30542)?
Output: 207

Task: Any idea what IC50 came out for Cc1cnc2ccc(-c3nc(C(=O)NC[C@H]4CC(C)(C)CN4C)c(N)nc3-c3ncco3)cn12 (single isomer, unassigned; isomer 2) [Example 230] on hADORA1/CHO (hA1 expressing) cells (Homo sapiens (Human), UniProt P30542)?
Output: 6000

Task: Any idea what IC50 came out for CN1CCCC1CNC(=O)c1nc(-c2ccc3ncc(C(F)(F)F)n3c2)c(-c2ncco2)nc1N (single isomer, unassigned) [Cmpd. 206] on hADORA1/CHO (hA1 expressing) cells (Homo sapiens (Human), UniProt P30542)?
Output: 2490

Task: Any idea what IC50 came out for COc1ccccc1CNC(=O)c1nc(-c2cc(C)nc(C)c2)c(-n2cccn2)nc1N [Example 56] on hADORA1/CHO (hA1 expressing) cells (Homo sapiens (Human), UniProt P30542)?
Output: 940

Task: Any idea what IC50 came out for Cc1cnc2ccc(-c3nc(C(=O)N[C@@H]4CCOC4)c(N)nc3-c3ncco3)cn12 [Example 255] on hADORA1/CHO (hA1 expressing) cells (Homo sapiens (Human), UniProt P30542)?
Output: 6850

Task: Any idea what IC50 came out for Cc1cnc2ccc(-c3nc(C(=O)NCCc4nccn4C)c(N)nc3-c3ncco3)cn12 [Example 205] on hADORA1/CHO (hA1 expressing) cells (Homo sapiens (Human), UniProt P30542)?
Output: 153

Task: Any idea what IC50 came out for Cc1cnc2ccc(-c3nc(C(=O)NCCn4cccn4)c(N)nc3-c3ncco3)cn12 [Example 158] on hADORA1/CHO (hA1 expressing) cells (Homo sapiens (Human), UniProt P30542)?
Output: 756
